Let's look at some molecules and their measured composite z-score.
# assay.name: probe aNOTCH3 binding on compound microarray – biochemical, small-molecule microarray, 635/667 nm fluorescence, primary screen (AID 1120);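 further: probe is a biotin-tagged antibody raised against NOTCH3 rather than NOTCH3 protein; score merges spot fluorescence near 667 nm with spot signal to noise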
# experimental.setup: higher = more signal
// no unit string in output, number only

Below: 2 molecules and their reported composite z-score.
{"columns": ["molecule", "composite z-score"],
 "data": [
  ["C=CCCN(CC#C[C@H]1Oc2ccccc2S(=O)(=O)N2CCC[C@@H]12)S(=O)(=O)c1ccc(C)cc1", 0.0311],
  ["CC1(C)C(=O)C(c2ccccc2)=C2CN3C(=O)N(CCc4ccccc4)C(=O)C3(Cc3ccccc3)C=C21 (stereo not drawn)", 0.351]
]}

Next item in the queue.
Any idea what its composite z-score is? The molecule is CC(C)OC(=O)C1=CCC(c2cccc(Cl)c2)O1 (stereo not drawn)
-0.36
